Source of measurements: the supplement of paper PMC8728848

The entries below are paired with their reported glycan array binding signal (z-score).
measured target: Fuc(a1-2)Gal(b1-4)[Fuc(a1-3)]GlcNAc(b1-3)Gal(b1-4)[Fuc(a1-3)]GlcNAc
run description: glycan array binding signal (z-score within array); higher = stronger binding
condition info: glycan notation: IUPAC condensed, linker removed
About 410 targets per protein were measured; listed, in parts, are those with the strongest signals and a random draw of the rest.
observation type: glycan array binding signal (z-score)

binder	result
Gal 10 (Homo sapiens), Q05315 (protein) MSLLPVPYTEAASLSTGSTVTIKGRPLVCFLNEPYLQVDFHTEMKEESDIVFHFQVCFGRRVVMNSREYGAWKQQVESKNMPFQDGQEFELSISVLPDKYQVMVNGQSSYTFDHRIKPEAVKMVQVWRDISLTKFNVSYLKR	-1.35
Flo5 (Saccharomyces cerevisiae), P38894 (protein) MGSSHHHHHHSSGLVPRGSHMSGATEACLPAGQRKSGMNINFYQYSLKDSSTYSNAAYMAYGYASKTKLGSVGGQTDISIDYNIPCVSSSGTFPCPQEDSYGNWGCKGMGACSNSQGIAYWSTDLFGFYTTPTNVTLEMTGYFLPPQTGSYTFSFATVDDSAILSVGGSIAFECCAQEQPPITSTNFTINGIKPWDGSLPDNITGTVYMYAGYYYPLKVVYSNAVSWGTLPISVELPDGTTVSDNFEGYVYSFDDDLSQSNCTIPDPSIH	-0.205
LICBM33A (Lactococcus lactis), Q9CE94 (protein) MKKLLTGLLVAAGLLSVSLLIKTDTVSAHGYVQSPPARGYQGQLDSQSLGWTAAFNIYGNVISNPQSLEAPKGFPECGPADGRIASANGGLGQIGDFVLDNQTSSRWKKTSISTGSNIFTWKYTAPHKTTKWHYYMTKTGWDQNAPLKHSELELIGTINHDGSPATNNLSHTINIPTDRSGYHIVLAVWDVADTSNAFYNVIDINVNNKNASSQVFGPFL	-0.587
MIG/CXCL9 (Homo sapiens) (protein) TPVVRKGRCSCISTNQGTIHLQSLKDLKQFAPSPSCEKIEIIIATLKNGVQTCLNPDSADVKELIKKTEKQVSQKKKQKNGKKHQKKKVLKVRKSQRSRQKKTT	-0.383
AICL (Homo sapiens), Q92478 (protein) MMTKHKKCFIIVGVLITTNIITLIVKLTRDSQSLCPYDWIGFQNKCYYFSKEEGDWNSSKYNCSTQHADLTIIDNIEEMNFLRRYKCSSDHWIGLKMAKNRTGQWVDGATFTKSFGMRGSEGCAYLSDDGAATARCYTERKWICRKRIH	-0.049
Ficolin B (Rattus norvegicus), P57756 (protein) MVLGSAALFVLSLCVTELTLHAADTCPEVKVLDLEGSNKLTILQGCPGLPGALGPKGEAGAKGDRGESGLPGHPGKAGPTGPKGDRGEKGVRGEKGDTGPSQSCATGPRTCKELLTRGYFLTGWYTIYLPDCRPLTVLCDMDTDGGGWTVFQRRIDGTVDFFRDWTSYKQGFGSQLGEFWLGNDNIHALTTQGTNELRVDLADFDGNHDFAKYSSFQIQGEAEKYKLILGNFLGGGAGDSLTSQNNMLFSTKDQDNDQGSSNCAVRYHGAWWYSDCHTSNLNGLYLRGLHKSYANGVNWKSWKGYNYSYKVSEMKVRLI	-0.205
DCIR (Homo sapiens), Q9UMR7 (protein) MTSEITYAEVRFKNEFKSSGINTASSAASKERTAPHKSNTGFPKLLCASLLIFFLLLAISFFIAFVIFFQKYSQLLEKKTTKELVHTTLECVKKNMPVEETAWSCCPKNWKSFSSNCYFISTESASWQDSEKDCARMEAHLLVINTQEEQDFIFQNLQEESAYFVGLSDPEGQRHWQWVDQTPYNESSTFWHPREPSDPNERCVVLNFRKSPKRWGWNDVNCLGPQRSVCEMMKIHL	-0.367
